Origin of measurements: paper PMC12155096

Target: human CYP1A2 (Homo sapiens, UniProt P05177)
Sequence (P05177 1-516): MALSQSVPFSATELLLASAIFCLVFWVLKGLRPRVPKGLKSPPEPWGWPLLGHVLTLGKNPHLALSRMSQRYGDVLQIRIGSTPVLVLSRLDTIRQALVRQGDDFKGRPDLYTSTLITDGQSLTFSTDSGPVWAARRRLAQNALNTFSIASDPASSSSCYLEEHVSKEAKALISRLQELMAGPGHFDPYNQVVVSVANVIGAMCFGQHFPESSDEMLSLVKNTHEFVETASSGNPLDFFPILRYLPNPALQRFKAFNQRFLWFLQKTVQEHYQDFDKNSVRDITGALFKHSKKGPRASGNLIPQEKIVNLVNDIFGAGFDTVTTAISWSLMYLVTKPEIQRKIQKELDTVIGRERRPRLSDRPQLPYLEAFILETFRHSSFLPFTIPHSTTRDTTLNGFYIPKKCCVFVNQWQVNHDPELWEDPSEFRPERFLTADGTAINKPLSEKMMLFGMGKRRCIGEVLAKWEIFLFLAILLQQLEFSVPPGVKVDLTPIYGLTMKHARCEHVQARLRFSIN
Experiment: biochemical
Conditions: CYP1A2 AC50 (half-maximal activity concentration)
Quantity Kind: AC50 (µM)
Numbers only, in µM.

N=C(N)N/N=C/c1c(Cl)cccc1Cl | 14.4
C[Si](Cl)(c1ccccc1)c1ccccc1 | 32.2
Cc1cc(=O)oc2cc(O)ccc12 | 28.6
Oc1c(Cl)c(Cl)c(Cl)c(Cl)c1Cl [Pentachlorophenol] | 67.4
Nc1cc(Cl)cc(Cl)c1 | 30.7

Quick batch: AC50 for everything below.
1. CCOC(=O)[C@@H](C)Oc1ccc(Oc2nc3ccc(Cl)cc3o2)cc1
2. O=P(Oc1ccccc1)(Oc1ccccc1)Oc1ccccc1 [Triphenyl phosphate]
3. O=[N+]([O-])c1c(Cl)cc(Cl)cc1Cl
4. CC(C)N(Cc1ccccc1)C(=O)C(C)(C)C
5. CC(=O)c1ccc2ccccc2c1
6. Oc1cc(Cl)c(Cl)cc1Cl
7. Cc1ccc2ccccc2n1

1. 23.8
2. 10.8
3. 34.7
4. 32.6
5. 9.34
6. 20.8
7. 44

Lab note: each molecule below needs its AC50 filled in.
1. COC(=O)Nc1nc2ccc(C(=O)c3ccccc3)cc2[nH]1
2. CC(C)OC(=O)C(C)(C)Oc1ccc(C(=O)c2ccc(Cl)cc2)cc1 [Fenofibrate]
3. CCOC(=O)C(O)(c1ccc(Cl)cc1)c1ccc(Cl)cc1 [Chlorobenzilate]

1. 14
2. 19.9
3. 44.5

* * *

CYP2C19 AC50 (half-maximal activity concentration) values recorded for human CYP2C19 (Homo sapiens)
Counter-ions that a name gives are not always drawn.

CC(C)COC(=O)CCCCC(=O)OCC(C)C [Diisobutyl adipate] | Inactive
CC(C)(C)c1cc([N+](=O)[O-])cc([N+](=O)[O-])c1O | Inconclusive inhibitor
O=C(NC1CCN(CCc2c[nH]c3ccccc23)CC1)c1ccccc1 [Indoramin hydrochloride] | Inactive
O=[N+]([O-])c1ccc(Nc2ccc(Nc3ccccc3)c(S(=O)(=O)[O-])c2)c([N+](=O)[O-])c1.[Na+] | Inconclusive inhibitor
C1CC(COCC2CO2)CCC1COCC1CO1 (centres unmarked) | Inconclusive inhibitor
C[C@@H]1CC[C@@]2(OC1)O[C@H]1C[C@H]3[C@@H]4CC[C@H]5C[C@@H](O)CC[C@]5(C)[C@H]4CC(=O)[C@]3(C)[C@H]1[C@@H]2C | Inactive
CC(C)(c1ccccc1)c1ccccc1 | Inactive

For the next question, use this compound.
Summary for this compound, O=C(CCC1CCN(Cc2ccccc2)CC1)c1ccc2c(c1)NCCCC2.O=C(O)/C=C/C(=O)O [Zanapezil fumerate] : CYP2C19 AC50 (half-maximal activity concentration) is Inactive
